experiment: qHTS of pediatric cancer cell lines to identify multiple opportunities for drug repurposing: Confirmatory screen for SK-N-MC cells (AID 1347111); conditions: SK-N-MC cell viability; series mostly up to 45.9 µM;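 also: cells exposed to compound for 48 h before the readout; nearly all actives have a fitted effect of over 70% in size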
Inconclusive results are not listed. Calls of active or inactive are those of the source. Calls follow the shape of the dose curve; as a rule, active = well fitted cell-killing curve with a large enough effect; inconclusive = small, poorly fitted or top-dose-only effect; inactive = no such curve, though single readings can be large or run the other way.
Outcome (select one): y = active, n = inactive

compound	class-label
CC[C@@]1(O)C(=O)OCc2c1cc1n(c2=O)Cc2cc3ccccc3nc2-1	y
C=CCON=C(C[C@H]1O[C@@H]2O[C@]3(C)CC[C@@H]4[C@H](C)CC[C@@H]([C@H]1C)[C@@]24OO3)[C@H]1O[C@@H]2O[C@]3(C)CC[C@H]4[C@H](C)CC[C@@H]([C@@H]1C)[C@@]24OO3	y
CC[C@@H]1[C@@H](C)O[C@@](O)([C@@H](C)[C@H](O)[C@H](C)[C@H]2OC(=O)C=CC=C[C@@H](C)[C@@H]([C@@H](C)[C@@H](O)[C@H](C)[C@@]3(O)C[C@H](O[C@H]4C[C@H](O)[C@H](O)[C@H](C)O4)[C@H](CC)[C@@H](C)O3)OC(=O)C=CC=C[C@@H]2C)C[C@H]1O[C@H]1C[C@H](O)[C@H](O)[C@H](C)O1	n
CC1=C(O)C(=O)C=C2C1=CC=C1[C@@]2(C)CC[C@@]2(C)[C@@H]3C[C@](C)(C(=O)O)CC[C@]3(C)CC[C@]12C	y
CC(C)[C@]12O[C@@H]1[C@@H]1O[C@]13[C@]1(O[C@H]1C[C@@H]1C4=C(CC[C@@]13C)C(=O)OC4)[C@H]2O	y
CC=C(C)C(=O)N[C@@H](c1ccccc1)[C@@H](O)C(=O)O[C@H]1C[C@@]2(O)[C@@H](OC(=O)c3ccccc3)[C@@H]3[C@]4(OC(C)=O)CO[C@@H]4C[C@H](O)[C@@]3(C)C(=O)[C@H](OC(C)=O)C(=C1C)C2(C)C	y

Moving on to the next compound.
Input line: Call for entry COc1ccc2c(c1)CN(C)CC2c1ccc(Cl)c(Cl)c1 (stereo not drawn) :
Output line: y

###

experiment: qHTS of pediatric cancer cell lines to identify multiple opportunities for drug repurposing: Primary screen for Rh41 cells (AID 1347108); conditions: Rh41 rhabdomyosarcoma viability, CellTiter-Glo luminescence, 48 h; series mostly up to 46 µM; also: nearly all actives have a fitted effect of over 70% in size
Results filed as inconclusive are left out. Activity calls are given as the source filed them. Calls come from the whole dose curve; as a rule, active = well fitted cell-killing curve with a large enough effect; inconclusive = small, poorly fitted or top-dose-only effect; inactive = no such curve, though single readings can be large or run the other way.
Outcome (select one): T (active), F (inactive)

molecule	class-label
COCCOCCO	F

Input line: Call for entry C[C@@H]1[C@H](O)[C@@H](C)C=CC=CCCC=CC=CC=CC=C[C@H](O[C@H]2O[C@@H](C)[C@H](O)[C@@H](N)[C@@H]2O)CC2O[C@](O)(C[C@@H](O)[C@H](O)CC[C@@H](O)C[C@@H](O)C[C@@H](O)CC(=O)O[C@H]1C)C[C@H](O)[C@H]2C(=O)O :
Output line: F

Input line: Call for entry Cc1c(N)nc([C@H](CC(N)=O)NC[C@@H](N)C(N)=O)nc1C(=O)N[C@H](C(=O)N[C@@H](C)[C@H](O)[C@@H](C)C(=O)N[C@@H](C(=O)NCCc1nc(-c2nc(C(=O)NCCC[S+](C)C)cs2)cs1)[C@@H](C)O)C(O[C@H]1O[C@H](CO)[C@H](O)[C@@H](O)[C@@H]1O[C@H]1O[C@H](CO)[C@@H](O)[C@H](OC(N)=O)[C@H]1O)c1cnc[nH]1 (some centres not stated) :
Output line: F

Input line: Call for entry COC1=CC(C)=C[C@@H](C)[C@@H](O)[C@@H](C)CC(C)=CC=C[C@H](OC)[C@H]([C@@H](C)[C@@H](O)[C@H](C)[C@@]2(O)C[C@@H](O)[C@H](C)[C@@H](C(C)C)O2)OC1=O :
Output line: T

Input line: Call for entry C=CCON=C(C[C@H]1O[C@@H]2O[C@]3(C)CC[C@@H]4[C@H](C)CC[C@@H]([C@H]1C)[C@@]24OO3)[C@H]1O[C@@H]2O[C@]3(C)CC[C@H]4[C@H](C)CC[C@@H]([C@@H]1C)[C@@]24OO3 :
Output line: T

Input line: Call for entry Cc1cc(O)ccc1Cl :
Output line: F

Input line: Call for entry O=C1CCC[C@@H]2[C@H]3CCCN4CCC[C@@H](CN12)[C@@H]34 :
Output line: F

###

Tested on: MKL-1
Experiment: qHTS assay to identify novel small-molecules to repurpose for Merkel cell carcinoma treatment (AID 1296009); also: nearly all actives have a fitted effect of over 60% in size
Conditions: MCC and control cell lines, CellTiter-Glo viability, 72 h; series mostly up to 46 µM
Description: MCC is a rare and aggressive neuroendocrine skin cancer with limited treatment options. Approximately 80% of MCCs have the Merkel cell polyomavirus (MCPyV) DNA integrated into the host genome (virus-positive: VP-MCC) and viral oncogenes drive oncogenesis. The remaining MCCs are virus-negative (VN-MCC) and are caused by UV mutagenesis. […] Using cell viability as a readout (CellTiter-Glo assay) we found both overlapping and distinct drugs that can be repurposed for the treatment of VP-MCC and VN-MCC. […]
Records with an inconclusive call do not appear. Activity calls are given as the source filed them. The call rests on the fitted dose curve; in most records, active means well fitted inhibition curve with a large enough effect; inconclusive means small, poorly fitted or top-dose-only effect; inactive means flat fitted curve, though single readings scatter.
Outcome (select one): T = active, F = inactive

Input line: Call for entry CC1=C(C(=O)O)N2C(=O)[C@@H](N)[C@H]2SC1 :
Output line: F

Input line: Call for entry COC(=O)[C@@H](N)CCCN=C(N)N[N+](=O)[O-] :
Output line: F

Input line: Call for entry O=c1cccc2n1CC1CNC[C@H]2C1 :
Output line: T

Input line: Call for entry CC(N[C@H]1C[C@H]1c1ccccc1)c1ccc2c(c1)OCCO2 (stereo not given in full) :
Output line: F

Input line: Call for entry C[C@](O)(COc1ccc(C#N)cc1)C(=O)Nc1ccc(C#N)c(C(F)(F)F)c1 :
Output line: F

Input line: Call for entry CC(=CCCC1=CCC(C2=CC(=O)OC2O)OC1O)CCC1=C(C)CCCC1(C)C (stereo not given) :
Output line: F

Input line: Call for entry c1cc2ccc3cccc4ccc(c1)c2c34 :
Output line: F

Input line: Call for entry CCN1C[C@]2(OC(=O)c3ccccc3NC(C)=O)CC[C@H](OC)[C@@]34[C@H]5CC6[C@@H](OC)C[C@](O)(C(C[C@@H]23)[C@@H]14)[C@@]5(O)[C@@H]6OC :
Output line: F

Input line: Call for entry O=S(=O)(CC1CS1)c1ccc(Oc2ccccc2)cc1 (stereo not given) :
Output line: T

Input line: Call for entry CCCN(CCC)c1c([N+](=O)[O-])cc(S(N)(=O)=O)cc1[N+](=O)[O-] :
Output line: T

###

assay: Natriuretic polypeptide receptor (hNpr1) antagonism - Pilot counterscreen GloSensor control cell line (AID 1347045); conditions: HEK293 cGMP GloSensor cells, SNP-stimulated luminescence, 20 min; series mostly up to 38.3 µM
Results filed as inconclusive are left out. Calls of active or inactive are those of the source. Calls follow the shape of the full dose curve.
Outcome (select one): true (1) for active, false (0) for inactive

molecule	class-label
NC1CC1c1ccccc1 (configuration not stated)	false (0)
C[N+]1(C)C2CCC1CC(OC(=O)C(CO)c1ccccc1)C2 (configuration not stated)	false (0)
CCCCc1ccc(C(=O)O)nc1	false (0)
O=C(O)[C@@H]1CCN1	false (0)
NC1CCc2cc(O)c(O)cc2C1 (configuration not stated)	false (0)

Input line: Call for entry NC(=O)CN1CC(O)CC1=O (configuration not stated) :
Output line: false (0)

Input line: Call for entry NC(N)=NOCCC(N)C(=O)O (configuration not stated) :
Output line: false (0)

Input line: Call for entry CNCCc1c[nH]c2ccc(O)cc12 :
Output line: false (0)

Input line: Call for entry CC(Cc1ccc(O)cc1)NCC(O)c1cc(O)cc(O)c1 (configuration not stated) :
Output line: false (0)

Input line: Call for entry c1ccc2sc(C3(N4CCCCC4)CCCCC3)cc2c1 :
Output line: false (0)

Input line: Call for entry COc1ccc2c(c[n+](C)c3c4cc5c(cc4ccc23)OCO5)c1OC :
Output line: true (1)

Input line: Call for entry COc1cc(C(O)CN)ccc1O (configuration not stated) :
Output line: false (0)

Input line: Call for entry CCCN1CCO[C@@H]2c3cc(O)ccc3OC[C@H]21 :
Output line: false (0)

Input line: Call for entry O=C(N[C@H]1CN2CCC1CC2)c1ccc(Cl)cc1 :
Output line: false (0)

Input line: Call for entry CCCN1CCC[C@H](c2cccc(O)c2)C1 :
Output line: false (0)

###

molecular target: Nucleoprotein (Lymphocytic choriomeningitis virus (strain Armstrong)); assay: qHTS for Inhibitors of the Functional Ribonucleoprotein Complex (vRNP) of Lymphocytic Choriomeningitis Arenaviruses (LCMV): LCMV Primary Screen - GLuc reporter signal (AID 1347086); conditions: LCMV minigenome vRNP cell assay, Gaussia luciferase reporter; series mostly up to 57.5 µM; also: nearly all actives have a fitted effect of over 70% in size
Records with an inconclusive call do not appear. Calls of active or inactive are those of the source. Calls follow the shape of the full dose curve.
Outcome (select one): 1 (yes) (active), 0 (no) (inactive)

Worked examples, 2 compounds total:
> print(dat)
                                   compound  class.label
1  OCCn1cc(-c2ccc3c(c2)CCC3=NO)c(-c2ccncc2)n1      1 (yes)
2  Cc1cnc(Nc2ccc(OCCN3CCCC3)cc2)nc1Nc1cccc(S(=O)(=O)NC(C)(C)C)c1       0 (no)

Input line: Call for entry OCCn1cc(-c2cnc3nnn(Cc4ccc5ncccc5c4)c3n2)cn1 :
Output line: 0 (no)

Input line: Call for entry CS(=N)(=O)CC[C@H](N)C(=O)O (some centres not stated) :
Output line: 0 (no)

Input line: Call for entry Nc1ccccc1N :
Output line: 0 (no)

Input line: Call for entry CCCCCN(CCC12CC3CC(CC(C3)C1)C2)C(=O)NCCCc1ccncc1 :
Output line: 0 (no)

Input line: Call for entry Cc1[nH]nc2ccc(-c3cncc(OC[C@@H](N)Cc4ccccc4)c3)cc12 :
Output line: 1 (yes)

Input line: Call for entry CN1C(=O)CC[C@H]1c1cccnc1 :
Output line: 0 (no)

Input line: Call for entry CCOc1cc2ncc(C#N)c(Nc3ccc(F)c(Cl)c3)c2cc1NC(=O)C=CCN(C)C :
Output line: 1 (yes)
